Data credit: patent US20050250820A1

- target: PPARγ (UniProt P37231)
- Sequence (P37231 1-505): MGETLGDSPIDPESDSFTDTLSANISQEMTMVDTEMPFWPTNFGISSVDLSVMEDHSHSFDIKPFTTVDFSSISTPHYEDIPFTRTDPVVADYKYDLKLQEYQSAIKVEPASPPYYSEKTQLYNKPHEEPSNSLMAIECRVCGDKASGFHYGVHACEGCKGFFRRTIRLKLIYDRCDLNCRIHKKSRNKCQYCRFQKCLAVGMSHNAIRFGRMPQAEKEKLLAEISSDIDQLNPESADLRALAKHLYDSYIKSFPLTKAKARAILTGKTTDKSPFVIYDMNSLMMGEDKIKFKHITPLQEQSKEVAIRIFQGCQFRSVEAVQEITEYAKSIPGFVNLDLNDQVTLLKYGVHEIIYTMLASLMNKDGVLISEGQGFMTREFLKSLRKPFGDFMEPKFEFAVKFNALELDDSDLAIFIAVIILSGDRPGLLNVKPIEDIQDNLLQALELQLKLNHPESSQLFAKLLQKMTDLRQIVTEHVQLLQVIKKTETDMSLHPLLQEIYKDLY
Recorded measurements of IC50, one per entry

These solved cases illustrate the format of a correct answer.
| molecule | target | IC50 |
| --- | --- | --- |
| CC(=O)c1cc(NS(=O)(=O)c2ccc(C(F)(F)F)cc2Cl)cc(Cl)c1Sc1nc2cc(C(F)(F)F)ccc2s1 [Example 292] | PPARγ (UniProt P37231) | < 1000 nM |
| O=S(=O)(Nc1ccc(Sc2nc3cccc(Cl)c3s2)c(Cl)c1)c1ccc(I)cc1 [Example 73.8] | PPARγ (UniProt P37231) | < 1000 nM |
| O=S(=O)(Nc1cc(Cl)c(Sc2nc3cc(C(F)(F)F)ccc3s2)c(Cl)c1)c1ccc(C(F)(F)F)cc1Cl [Example 290] | PPARγ (UniProt P37231) | < 1000 nM |

Query block: GET /values?readout=IC50&item= CSc1ccc(S(=O)(=O)Nc2ccc(Oc3cncc(Cl)c3)c(F)c2)cc1 [Example 16.1]
Result block: < 1000 nM

Query block: Same again, this time with O=S(=O)(Nc1cc(Cl)c(Sc2cnc3ccccc3c2)c(Cl)c1)c1ccc(C(F)(F)F)cc1Cl [Example 87.3]
Result block: < 1000 nM

Query block: Same again, this time with Cc1cc(S(=O)(=O)Nc2ccc(Sc3nc4cccc(Cl)c4s3)c(Cl)c2)c(Cl)cc1Cl [Example 73.9]
Result block: < 1000 nM

Query block: Same again, this time with O=S(=O)(Nc1ccc(Sc2ccc3ccccc3c2)c(Cl)c1)c1ccc(C(F)(F)F)cc1Cl [Example 95]
Result block: < 1000 nM

Query block: Same again, this time with O=S(=O)(Nc1cc(Cl)c(Sc2cnc3ccccc3c2)c(Cl)c1)c1ccccc1Cl [Example 86]
Result block: < 1000 nM

Query block: Same again, this time with O=S(=O)(Nc1ccc(Sc2nc3cccc(Cl)c3s2)c(Cl)c1)c1ccc(Cl)c(Cl)c1 [Example 73.6]
Result block: < 1000 nM

Query block: Same again, this time with N#Cc1cc(NS(=O)(=O)c2ccc(I)cc2)ccc1Oc1cc(F)cc(F)c1 [Example 27.5]
Result block: < 10000 nM

Query block: Same again, this time with O=S(=O)(Nc1cc(Cl)c(Oc2nc3ccc(Cl)cc3s2)c(Cl)c1)c1ccc(C(F)(F)F)cc1Cl [Example 365]
Result block: < 10000 nM

Query block: Same again, this time with CCNC(=O)c1cc(NS(=O)(=O)c2cc(C)c(Cl)cc2Cl)c(Br)cc1Oc1cncc(Cl)c1 [Example 49.1]
Result block: < 1000 nM

Query block: Same again, this time with N#Cc1cc(NS(=O)(=O)c2ccc(C(F)(F)F)cc2)ccc1Oc1cncc(Cl)c1 [Example 4.1]
Result block: < 1000 nM

====

Recorded measurements of melting point, one per entry

These solved cases illustrate the format of a correct answer.
| compound | melting point |
| --- | --- |
| O=S(=O)(Nc1cc(Cl)c(Oc2cncc(Cl)c2)c(Cl)c1)c1ccc(Cl)c(Cl)c1 | 199 to 200 °C |
| O=S(=O)(Nc1cc(Cl)c(Oc2nc3ccc(Cl)cc3s2)c(Cl)c1)c1ccc(Cl)cc1Cl | 73 to 75 °C |
| O=S(=O)(Nc1cc(Cl)c(Oc2cncc(Cl)c2)c(Cl)c1)c1ccc(I)cc1 | 211 to 214 °C |

Next up:
Query block: GET /values?readout=melting point&item= O=S(=O)(Nc1ccc(Sc2nc3cc(Cl)ccc3s2)c(Cl)c1)c1ccc(Cl)cc1Cl
Result block: 174.7 °C

====

readoutName: melting point (°C)

| compound | measured |
| --- | --- |
| Cc1ccc(Cl)c2sc(Sc3ccc(NS(=O)(=O)c4ccc(C(F)(F)F)cc4Cl)cc3F)nc12 | 221.2 |
| Cc1ccc(Cl)c2sc(Sc3ccc(NS(=O)(=O)c4ccc(Cl)cc4Cl)cc3F)nc12 | 230.4 |
| O=S(=O)(Nc1cc(Cl)c(Sc2cnc3ccccc3c2)c(Cl)c1)c1ccccc1Cl | 219.6 |
| Cc1ccc(Cl)c2sc(Sc3ccc(NS(=O)(=O)c4ccc(Cl)cc4Cl)cc3Cl)nc12 | 218.1 |
| O=S(=O)(Nc1ccc(Sc2nc3cc(Cl)ccc3s2)c(Cl)c1)c1ccc(Cl)c(Cl)c1 | 201.2 |
| O=S(=O)(Nc1cc(Cl)c(Sc2cnc3ccccc3c2)c(Cl)c1)c1ccc(C(F)(F)F)cc1Cl | 225.1 |
| Cc1cc(S(=O)(=O)Nc2ccc(Sc3nc4cc(Cl)ccc4s3)c(Cl)c2)c(Cl)cc1Cl | 203.7 |
| Cc1cc(S(=O)(=O)Nc2cc(F)c(Oc3cnc4ccccc4c3)c(Cl)c2)c(Cl)cc1Cl | 187 |
| Cc1ccc(Cl)c2sc(Sc3ccc(NS(=O)(=O)c4ccc(C(F)(F)F)cc4Cl)cc3Cl)nc12 | 189 |

====

Recorded measurements of melting point, one per entry

These solved cases illustrate the format of a correct answer.
| molecule | measured |
| --- | --- |
| COc1cc(NS(=O)(=O)c2ccc(C(F)(F)F)cc2)ccc1Oc1cc(F)cc(F)c1 [Example 33.5] | 141 to 143 °C |
| COc1cc(NS(=O)(=O)c2ccc(C(F)(F)F)cc2)ccc1Oc1cc(Cl)cc(Cl)c1 [Example 33.6] | 165 to 166 °C |
| COc1ccc(S(=O)(=O)Nc2ccc(Oc3cc(F)cc(F)c3)c(OC)c2)cc1 [Example 33.8] | 129 to 133 °C |
| O=S(=O)(Nc1cc(Cl)c(Oc2nc3ccc(Cl)cc3s2)c(Cl)c1)c1ccc(C(F)(F)F)cc1Cl [Example 365] | 82 to 84 °C |

Query block: GET /values?readout=melting point&item= COc1cc(OC)cc(Oc2ccc(NS(=O)(=O)c3ccc(Cl)cc3Cl)cc2OC)c1 [Example 33.9]
Result block: 100 to 103 °C

Query block: Same again, this time with O=S(=O)(Nc1cc(Cl)c(Oc2cncc(Cl)c2)c(Cl)c1)c1ccc(C(F)(F)F)cc1Cl [Example 108.6]
Result block: 185 to 189 °C

Query block: Same again, this time with O=C(O)c1cccc2cc(Oc3c(Cl)cc(NS(=O)(=O)c4ccc(Cl)cc4Cl)cc3Cl)cnc12 [Example 184]
Result block: 263 to 266 °C

Query block: Same again, this time with O=C(O)c1ccc2ncc(Oc3c(Cl)cc(NS(=O)(=O)c4ccc(Cl)cc4Cl)cc3Cl)cc2c1 [Example 183]
Result block: 228 to 232 °C

====

readoutName: melting point

These solved cases illustrate the format of a correct answer.
| compound | readoutName | measured |
| --- | --- | --- |
| COc1cc(NS(=O)(=O)c2ccc(Cl)cc2Cl)ccc1Oc1cc(F)cc(F)c1 | melting point | 120 to 124 °C |
| COc1ccc(S(=O)(=O)Nc2ccc(Oc3cc(OC)cc(OC)c3)c(OC)c2)cc1 | melting point | 92 to 95 °C |
| COc1cc(OC)cc(Oc2ccc(NS(=O)(=O)c3ccc(C(F)(F)F)cc3Cl)cc2OC)c1 | melting point | 72 to 79 °C |

Query block: GET /values?readout=melting point&item= COc1cc(NS(=O)(=O)c2ccc(Cl)cc2Cl)ccc1Oc1cc(Cl)cc(Cl)c1
Result block: 128 to 131 °C

Query block: Same again, this time with COc1ccc2nc(Oc3c(Cl)cc(NS(=O)(=O)c4ccc(C(F)(F)F)cc4Cl)cc3Cl)sc2c1
Result block: 164 to 165 °C
